target: Thrombin-activated human FXIIIa (Homo sapiens); construct: purchased Zedira GmbH T070; experiment: Fluorescence-quenched A101 isopeptidase assay of FXIIIa inhibition kinetics; format: biochemical; conditions: small molecule series, reversible, Dixon plot; Interference = data afflicted by fluorescence interference; read-out: FXIIIa Ki
What pKi was measured for each of the following?
Note on pKi: it is the negative log10 of concentration, concentration in mol/L.

So the reported pKi for COC(=O)C=CCCC(NC(=O)CCC(=O)O)C(=O)N1CCN(C(=O)c2cccc3ccccc23)CC1 (centres unmarked) , on Thrombin-activated human FXIIIa (Homo sapiens), turned out to be 3.88

C=CC(=O)NC(CNC(=O)CCC(=O)O)C(=O)N1CCN(C(=O)c2cccc3ccccc23)CC1 (centres unmarked) on Thrombin-activated human FXIIIa (Homo sapiens) gives pKi = 3.97

Test item C=CC(=O)NCC(NC(=O)CCC(=O)O)C(=O)N1CCN(C(=O)c2cccc3ccccc23)CC1 (centres unmarked) ; Thrombin-activated human FXIIIa (Homo sapiens); reported pKi was 4.16

Noted pKi for C=CC(=O)NCC(NC(=O)CC(=O)O)C(=O)N1CCN(C(=O)c2cccc3ccccc23)CC1 (centres unmarked) , tested on Thrombin-activated human FXIIIa (Homo sapiens): 3.60

Fill in: Thrombin-activated human FXIIIa (Homo sapiens) pKi for COC(=O)C=CCCC(NC(=O)c1ccccc1C(=O)O)C(=O)N1CCN(C(=O)c2cccc3ccccc23)CC1 (centres unmarked) = 3.58

====

target: Thrombin-activated human FXIIIa (Homo sapiens); construct: purchased Zedira GmbH T070; test: Fluorescence-quenched A101 isopeptidase assay of FXIIIa inhibition kinetics; assay type: biochemical; settings: peptidic series; corrected Dixon plot, α = 13.5; read-out: FXIIIa Ki or KI: Ki of reversible inhibitors
Starred links: 1 amine or outer side, 2 acyl side, 3 side chain; linkers in the order of their positions; H or OH if unused. Non-standard residues stand in square brackets, D forms with d. Residues, ends and D or L forms follow the SMILES beside them. *: point of attachment. X2 = COC(=O)C=CCCC[C@H](N[*:1])C(=O)[*:2]; X3 = COC(=O)C=CC[C@H](N[*:1])C(=O)[*:2]; Nle = CCCC[C@H](N)C(=O)O; Orn = NCCC[C@H](N)C(=O)O; Dab = NCC[C@H](N)C(=O)O; Acryloyl = C=CC(=O)*
MEASUREMENT NAME: pKi
Would you please state pKi, meaning minus log10 of the concentration in mol/L, as a bare number?

Form field pKi, entry CCCC[C@H](NC(=O)[C@H](CC=CC(=O)OC)NC(=O)[C@@H](CC(=O)O)NC(C)=O)C(=O)N[C@@H](CCCC)C(=O)N[C@@H](CC(C)C)C(=O)N1CCC[C@H]1C(=O)N[C@@H](Cc1c[nH]c2ccccc12)C(=O)N1CCC[C@H]1C(=O)O [Compound 45] (Ac-[dD][X3][Nle][Nle]LPWP-OH) : 4.28

pKi recorded for this molecule, C=CC(=O)NCCCC[C@H](NC(=O)[C@@H](CC(=O)O)NC(C)=O)C(=O)N[C@@H](CCCC)C(=O)N[C@@H](CCCC)C(=O)N[C@@H](CC(C)C)C(=O)N1CCC[C@H]1C(=O)N[C@@H](Cc1c[nH]c2ccccc12)C(=O)N1CCC[C@H]1C(=O)O [Compound 14] (Ac-[dD]K(Acryloyl)[Nle][Nle]LPWP-OH) , is 3.90

GET /value?item= C=CC(=O)NCC[C@H](NC(=O)[C@@H](CC(=O)O)NC(C)=O)C(=O)N[C@@H](CCCC)C(=O)N[C@@H](CCCC)C(=O)N[C@@H](CC(C)C)C(=O)N1CCC[C@H]1C(=O)N[C@@H](Cc1c[nH]c2ccccc12)C(=O)N1CCC[C@H]1C(=O)O [Compound 12] (Ac-[dD][Dab](Acryloyl)[Nle][Nle]LPWP-OH) &field=pKi returns 3.71

For record CCCC[C@H](NC(=O)[C@H](CCCC=CC(=O)OC)NC(=O)[C@@H](CC(=O)O)NC(C)=O)C(=O)N[C@@H](CCCC)C(=O)N[C@@H](CC(C)C)C(=O)N1CCC[C@H]1C(=O)N[C@@H](Cc1c[nH]c2ccccc12)C(=O)N1CCC[C@H]1C(=O)O [Compound 47] (Ac-[dD][X2][Nle][Nle]LPWP-OH) the listed pKi is 7.03

Lab book: pKi of C=CC(=O)NCCC[C@H](NC(=O)[C@@H](CC(=O)O)NC(C)=O)C(=O)N[C@@H](CCCC)C(=O)N[C@@H](CCCC)C(=O)N[C@@H](CC(C)C)C(=O)N1CCC[C@H]1C(=O)N[C@@H](Cc1c[nH]c2ccccc12)C(=O)N1CCC[C@H]1C(=O)O [Compound 13] (Ac-[dD][Orn](Acryloyl)[Nle][Nle]LPWP-OH) noted as 3.87

====

Molecular target: Thrombin-activated human FXIIIa (Homo sapiens, UniProt P00488)
Construct: purchased Zedira GmbH T070
Sequence (P00488 39-732 limits assumed): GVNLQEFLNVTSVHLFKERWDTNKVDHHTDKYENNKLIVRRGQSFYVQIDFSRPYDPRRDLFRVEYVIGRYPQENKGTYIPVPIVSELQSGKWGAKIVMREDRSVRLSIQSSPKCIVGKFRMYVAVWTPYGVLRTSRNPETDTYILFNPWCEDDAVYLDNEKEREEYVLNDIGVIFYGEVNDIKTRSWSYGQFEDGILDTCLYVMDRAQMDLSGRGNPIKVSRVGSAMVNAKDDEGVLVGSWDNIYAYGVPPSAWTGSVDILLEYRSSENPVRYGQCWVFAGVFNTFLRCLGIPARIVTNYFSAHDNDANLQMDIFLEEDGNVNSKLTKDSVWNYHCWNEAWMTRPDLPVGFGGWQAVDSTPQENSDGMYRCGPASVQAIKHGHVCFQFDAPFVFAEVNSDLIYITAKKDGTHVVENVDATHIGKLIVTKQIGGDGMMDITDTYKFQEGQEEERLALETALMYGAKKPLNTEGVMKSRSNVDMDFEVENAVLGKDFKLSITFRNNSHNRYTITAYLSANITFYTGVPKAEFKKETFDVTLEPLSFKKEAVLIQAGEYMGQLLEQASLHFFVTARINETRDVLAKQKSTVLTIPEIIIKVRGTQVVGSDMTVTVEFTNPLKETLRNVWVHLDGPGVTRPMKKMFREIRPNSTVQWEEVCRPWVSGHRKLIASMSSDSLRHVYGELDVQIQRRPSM
Assay: Fluorescence-quenched A101 isopeptidase assay of FXIIIa inhibition kinetics
Assay type: biochemical
Details: isozyme favoured, FXIIIa vs TG2; FXIIIa as the favoured isozyme
Starred links: 1 amine or outer side, 2 acyl side, 3 side chain; linkers in the order of their positions; H or OH if unused. Non-standard residues stand in square brackets, D forms with d. Residues, ends and D or L forms follow the SMILES beside them. *: point of attachment. X3 = COC(=O)C=CC[C@H](N[*:1])C(=O)[*:2]; Nle = CCCC[C@H](N)C(=O)O; Dab = NCC[C@H](N)C(=O)O; Acryloyl = C=CC(=O)*
MEASUREMENT NAME: Selectivity

- COMPOUND: "CCCC[C@H](NC(=O)[C@H](CC=CC(=O)OC)NC(=O)[C@@H](CC(=O)O)NC(C)=O)C(=O)N[C@@H](CCCC)C(=O)N[C@@H](CC(C)C)C(=O)N1CCC[C@H]1C(=O)N[C@@H](Cc1c[nH]c2ccccc12)C(=O)N1CCC[C@H]1C(=O)O [Compound 45] (Ac-[dD][X3][Nle][Nle]LPWP-OH)"
  MEASUREMENT NAME: "Selectivity"
  RESULT: "FXIIIa"
- COMPOUND: "C=CC(=O)NCC[C@H](NC(=O)[C@@H](CC(=O)O)NC(C)=O)C(=O)N[C@@H](CCCC)C(=O)N[C@@H](CCCC)C(=O)N[C@@H](CC(C)C)C(=O)N1CCC[C@H]1C(=O)N[C@@H](Cc1c[nH]c2ccccc12)C(=O)N1CCC[C@H]1C(=O)O [Compound 12] (Ac-[dD][Dab](Acryloyl)[Nle][Nle]LPWP-OH)"
  MEASUREMENT NAME: "Selectivity"
  RESULT: "FXIIIa"
- COMPOUND: "C=CC(=O)NCCCC[C@H](NC(=O)[C@@H](CC(=O)O)NC(C)=O)C(=O)N[C@@H](CCCC)C(=O)N[C@@H](CCCC)C(=O)N[C@@H](CC(C)C)C(=O)N1CCC[C@H]1C(=O)N[C@@H](Cc1c[nH]c2ccccc12)C(=O)N1CCC[C@H]1C(=O)O [Compound 14] (Ac-[dD]K(Acryloyl)[Nle][Nle]LPWP-OH)"
  MEASUREMENT NAME: "Selectivity"
  RESULT: "FXIIIa"

====

Molecular target: Human TG2 (Homo sapiens)
Construct: made in house
Sequence (P21980 1-687): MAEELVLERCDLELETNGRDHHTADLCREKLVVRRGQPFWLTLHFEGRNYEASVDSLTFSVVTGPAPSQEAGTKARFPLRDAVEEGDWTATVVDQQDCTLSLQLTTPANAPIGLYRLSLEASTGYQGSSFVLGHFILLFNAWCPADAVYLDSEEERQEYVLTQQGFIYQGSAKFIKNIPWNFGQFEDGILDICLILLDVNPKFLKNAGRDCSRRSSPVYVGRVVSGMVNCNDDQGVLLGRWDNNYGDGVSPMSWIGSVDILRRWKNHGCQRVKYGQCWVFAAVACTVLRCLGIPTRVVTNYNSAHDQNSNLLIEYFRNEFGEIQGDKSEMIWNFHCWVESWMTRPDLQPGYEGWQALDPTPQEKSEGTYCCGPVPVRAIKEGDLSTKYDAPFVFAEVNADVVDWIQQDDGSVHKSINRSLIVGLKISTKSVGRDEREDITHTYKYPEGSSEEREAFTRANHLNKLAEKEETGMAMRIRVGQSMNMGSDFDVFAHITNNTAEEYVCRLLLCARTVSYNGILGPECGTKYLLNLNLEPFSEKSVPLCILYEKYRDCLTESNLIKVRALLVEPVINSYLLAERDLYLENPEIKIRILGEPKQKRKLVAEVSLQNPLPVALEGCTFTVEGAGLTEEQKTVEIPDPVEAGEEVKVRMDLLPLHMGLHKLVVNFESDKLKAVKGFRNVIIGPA
Experiment: Colorimetric AL5 transamidase assay of TG2 inhibition kinetics
Assay type: biochemical
Conditions: irreversible inhibition
Starred links: 1 amine or outer side, 2 acyl side, 3 side chain; linkers in the order of their positions; H or OH if unused. Non-standard residues stand in square brackets, D forms with d. Residues, ends and D or L forms follow the SMILES beside them. *: point of attachment. RhodamineB = CCN(CC)c1ccc2c(-c3ccccc3C(=O)*)c3ccc(=[N+](CC)CC)cc-3oc2c1; X1 = COC(=O)/C=C/CC[C@H](N[*:1])C(=O)[*:2]; X2 = COC(=O)C=CCCC[C@H](N[*:1])C(=O)[*:2]; Nle = CCCC[C@H](N)C(=O)O; Ahx = NCCCCCC(=O)O
MEASUREMENT NAME: kinact/KI

kinact/KI reading for CCCC[C@H](NC(=O)[C@H](CCCC=CC(=O)OC)NC(=O)[C@@H](CC(=O)O)NC(C)=O)C(=O)N[C@@H](CCCC)C(=O)N[C@@H](CC(C)C)C(=O)N1CCC[C@H]1C(=O)N[C@@H](Cc1c[nH]c2ccccc12)C(=O)N1CCC[C@H]1C(=O)O [Compound 47] (Ac-[dD][X2][Nle][Nle]LPWP-OH) : 530 M⁻¹ s⁻¹

The reported value for COC(=O)C=CCCC(NC(=O)CCC(=O)O)C(=O)N1CCN(C(=O)c2cccc3ccccc23)CC1 (stereo not shown) [Compound 87] in terms of kinact/KI is 139 M⁻¹ s⁻¹

kinact/KI measured on COC(=O)C=CCCC(NC(=O)c1ccccc1C(=O)O)C(=O)N1CCN(C(=O)c2cccc3ccccc23)CC1 (stereo not shown) [Compound 88] = 104 M⁻¹ s⁻¹

Note to self: kinact/KI recorded for CCCC[C@H](NC(=O)[C@H](CC/C=C/C(=O)OC)NC(=O)[C@@H](CC(=O)O)NC(=O)CCCCCNC(=O)[C@@H]1CCCN1C(=O)c1ccccc1-c1c2ccc(=[N+](CC)CC)cc-2oc2cc(N(CC)CC)ccc12)C(=O)N[C@@H](CCCC)C(=O)N[C@@H](CC(C)C)C(=O)N1CCC[C@H]1C(=O)N[C@@H](Cc1c[nH]c2ccccc12)C(=O)N1CCC[C@H]1C(=O)O [Compound 93] (RhodamineB-P[Ahx][dD][X1][Nle][Nle]LPWP-OH) was 325 M⁻¹ s⁻¹
